- Test system: L1210 leukemia ip in BDF1 mice, survival T/C
- Method summary: NCI In Vivo Anticancer Drug Screen. Data for tumor model L1210 Leukemia (intraperitoneal) in B6D2F1 (BDF1) mice
- Assay context: endpoint: mean survival time; dose: 25.0 mg/kg/injection; schedule: Q04DX003 (ip); vehicle: Klucel (hydroxypropylcellulose) (HPC); higher = longer survival
Toxic doses and inconclusive results are not listed.
Assign T/C to each entry below.

Reported T/C, compound CC(=O)c1sccc1C : ____
92 % of control

Reported T/C, compound CCc1cccc(CC)c1N1C(=O)C2C(C1=O)C1(Cl)C(Cl)=C(Cl)C2(Cl)C1(Cl)Cl (stereo not given) : ____
91 % of control

Reported T/C, compound Oc1cc[c]([Hg][Cl])cc1 : ____
111 % of control

Reported T/C, compound O=[N+]([O-])c1cc(Cl)cc(Br)c1O : ____
102 % of control

Reported T/C, compound Clc1ccc(SCN2CCCCC2)cc1 : ____
93 % of control

---

- Tested on: L1210 leukemia ip in BDF1 mice, survival T/C
- Method summary: NCI In Vivo Anticancer Drug Screen. Data for tumor model L1210 Leukemia (intraperitoneal) in B6D2F1 (BDF1) mice
- Assay context: endpoint: mean survival time; dose: 200.0 mg/kg/injection; schedule: Q01DX001 (ip); vehicle: saline; higher = longer survival
Toxic doses and inconclusive results are not listed.
Assign T/C to each entry below.

Reported T/C, compound COCCCNc1ncnc2[nH]ncc12 : ____
106 % of control

Reported T/C, compound O=[N+]([O-])c1cccc(N(CCO)CCO)c1 : ____
93 % of control

Reported T/C, compound CCOC(=O)NN(C(=O)OCC)c1c(NNC(C)=O)nc(N)[nH]c1=O : ____
92 % of control

Reported T/C, compound CC(c1ccccc1)S(=O)(=O)c1ccccc1 (centres undefined) : ____
101 % of control

Reported T/C, compound O=C1COc2ccccc21 : ____
100 % of control

Reported T/C, compound Cn1c(=O)cc(C=Nc2ccc(O)cc2)c2ccccc21 : ____
98 % of control

Reported T/C, compound O=S(=O)(Cl)OO/C=C\OOS(=O)(=O)Cl : ____
108 % of control

Reported T/C, compound CC(C)c1ccc(C(C2C(=O)CC(C)(C)CC2=O)C2C(=O)CC(C)(C)CC2=O)cc1 : ____
109 % of control

Reported T/C, compound CCSc1nc(Cl)cc(Sc2nc(N)nc3nc[nH]c23)n1 : ____
100 % of control

Reported T/C, compound CNS(=O)(=O)c1ccc(Cl)cc1 : ____
101 % of control

Reported T/C, compound Cc1nnc(NS(=O)(=O)c2ccc(N=Nc3c(N)[nH]c(=S)[nH]c3=O)cc2)s1 : ____
100 % of control

Reported T/C, compound Cc1c(CCNC=O)cc(C)c2c3c(oc12)CCCC3 : ____
104 % of control

Reported T/C, compound O=c1[nH]c2c(cnn2-c2ccccc2)c(=O)n1OS(=O)(=O)c1ccccc1 : ____
100 % of control

Reported T/C, compound C=C(C)CCc1ccccc1 : ____
96 % of control

Reported T/C, compound CN1CCC(CO)CC1 : ____
100 % of control

Reported T/C, compound Cn1c2c(c(=O)n(C)c1=O)C(=Nc1ccccc1)C(=O)N2 : ____
104 % of control

Reported T/C, compound COC(=O)/C=C(\C)CCC1OC1(C)C (centres undefined) : ____
100 % of control

Reported T/C, compound O=C(NCCCCC(NC(=O)OCc1ccccc1)C(=O)NCCCCCCN(CCCCCCNC(=O)C(CCCCNC(=O)OCc1ccccc1)NC(=O)OCc1ccccc1)C(=O)C(CCCCNC(=O)OCc1ccccc1)NC(=O)OCc1ccccc1)OCc1ccccc1 (centres undefined) : ____
94 % of control

Reported T/C, compound COc1cc(C=O)c([N+](=O)[O-])cc1OC : ____
102 % of control

Reported T/C, compound COc1ccc(C(C)=O)cc1CCCO : ____
91 % of control

Reported T/C, compound CCCCN(CCCC)CCNc1ccc(Cl)c2oc3cc(C)ccc3c(=O)c12 : ____
93 % of control

Reported T/C, compound CCC(C)(C)N : ____
97 % of control

Reported T/C, compound CC(=O)C1(C)C(=O)N(S(=O)(=O)c2ccc(C)cc2)C(=O)N1S(=O)(=O)c1ccc(C)cc1 (centres undefined) : ____
89 % of control

Reported T/C, compound Cc1ccc(C)c(N(c2ccccc2N)S(C)(=O)=O)c1 : ____
101 % of control

Data origin, for the record: PubChem BioAssay AID248
